From: patent US12065416B2

biological target: recombinant cGAS (aa147-522) (Homo sapiens, UniProt Q8N884); construct: recombinant cGAS (aa147-522); His6-SUMO (N, cleaved yes); experiment: In vitro assay for inhibition of cGAS activity (ATP consumption, Kinase Glo); conditions: 37° C. 20 minutes, read-out: Activity (Inhibition of cGAS enzyme activity in vitro, IC50)
Sequence (Q8N884 147-522): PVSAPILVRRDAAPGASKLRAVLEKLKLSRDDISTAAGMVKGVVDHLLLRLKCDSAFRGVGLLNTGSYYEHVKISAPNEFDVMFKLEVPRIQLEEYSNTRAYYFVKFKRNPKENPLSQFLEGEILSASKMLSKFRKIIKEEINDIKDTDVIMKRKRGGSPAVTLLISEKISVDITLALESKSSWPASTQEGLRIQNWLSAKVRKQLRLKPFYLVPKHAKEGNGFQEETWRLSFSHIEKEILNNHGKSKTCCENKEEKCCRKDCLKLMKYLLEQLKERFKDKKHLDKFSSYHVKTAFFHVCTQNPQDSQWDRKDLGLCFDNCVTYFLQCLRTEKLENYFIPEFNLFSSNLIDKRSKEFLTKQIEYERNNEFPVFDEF
pIC50: −log10 of the molar value.
The compounds listed here are annotated with their pIC50.
quantity-name: pIC50

* COc1nc(SC)ncc1COc1cc(/C=C2\SC(=O)N(C)C2=O)c(Br)cc1O [Ex99] | 5.00 to 6.30
* O=C1/C(=C/c2cc(OCc3cccnc3)c(O)cc2Br)Sc2ncccc21 [Ex113] | ≥ 6.30
* CN1C(=O)S/C(=C\c2cc(Oc3ccc(-c4cccnc4)cc3)c(O)cc2Br)C1=O [ExB28] | ≤ 5.00
* CC(Oc1cc(/C=C2\Sc3ncccc3C2=O)c(Br)c(F)c1O)c1cnc(N)nc1 (stereo not shown) [Ex124] | ≥ 6.30
* CSc1ncc(COc2cc(/C=C3\SC(=O)N(C)C3=O)c(Br)cc2O)cn1 [Ex144] | 5.00 to 6.30
* CSc1nc([S+](C)[O-])ncc1COc1cc(/C=C2\Sc3ncccc3C2=O)c(Br)c(F)c1O (stereo not shown) [ExA16] | ≥ 6.30
* CN1C(=O)S/C(=C\c2cc(CCc3cnc(N)nc3)c(O)cc2Br)C1=O [ExB41] | 5.00 to 6.30
* CN1C(=O)S/C(=C\c2cc(OCc3cnc(Cl)nc3)c(O)c(F)c2Br)C1=O [Ex107] | 5.00 to 6.30
* CN1C(=O)S/C(=C\c2cc(Oc3cccc4c3COCC4)c(O)cc2Br)C1=O [ExB27] | ≤ 5.00
* CCc1cc(/C=C2\SC(=O)N(C)C2=O)c(Br)cc1O [Ex58] | 5.00 to 6.30
* CN1C(=O)S/C(=C\c2cc(OCc3ccnc4[nH]cnc34)c(O)cc2Br)C1=O [Ex68] | ≥ 6.30
* Nc1ncc(COc2cc(/C=C3\Sc4ncccc4C3=O)c(Br)cc2O)cn1 [Ex194] | ≥ 6.30
* CN1C(=O)S/C(=C\c2cc(OCc3cnc(Nc4ccccc4)nc3)c(O)cc2Br)C1=O [Ex158] | 5.00 to 6.30
* CN1C(=O)S/C(=C\c2cc(OCc3cnc(NCc4ccccn4)nc3)c(O)c(F)c2Br)C1=O [Ex188] | 5.00 to 6.30
* CN1C(=O)S/C(=C\c2cc(OCCc3ccncc3)c(O)cc2Br)C1=O [Ex179] | 5.00 to 6.30
* CC(Oc1cc(/C=C2\Sc3ncccc3C2=O)c(Br)cc1O)c1cccnc1 (stereo not shown) [Ex119] | 5.00 to 6.30
* COc1cc(/C=c2\sc3n(c2=O)CCCN=3)c(Cl)cc1O [Ex43] | 5.00 to 6.30
* CN1C(=O)S/C(=C\c2cc(OCc3ccccn3)c(O)cc2Br)C1=O [Ex89] | 5.00 to 6.30
* CN1C(=O)S/C(=C\c2cc(Oc3cnc(N)s3)c(O)c(F)c2Br)C1=O [ExB30] | 5.00 to 6.30
